Recorded values, source patent US20040127492A1.

Biological target: MAPKAPK2 (MK-2) (Homo sapiens)
Test: Determination of MK-2 IC50 (HSP-peptide phosphorylation, anion exchange resin capture assay)
Assay type: biochemical
Conditions: MK-2 Avg. IC50 (uM), Table 2, pyrazolylpyrazole MK-2 inhibitors
reported-endpoint: IC50

## Input What reported IC50 corresponds to CCOC(=O)c1nn(-c2ccccc2)c2c1CCc1[nH]ncc1-2 [Example 54] on MAPKAPK2 (MK-2) (Homo sapiens)?
## Output ≥ 200 µM

----------
Biological target: MK-3 (Homo sapiens, UniProt Q16644)
Sequence (Q16644 whole entry, species assumed): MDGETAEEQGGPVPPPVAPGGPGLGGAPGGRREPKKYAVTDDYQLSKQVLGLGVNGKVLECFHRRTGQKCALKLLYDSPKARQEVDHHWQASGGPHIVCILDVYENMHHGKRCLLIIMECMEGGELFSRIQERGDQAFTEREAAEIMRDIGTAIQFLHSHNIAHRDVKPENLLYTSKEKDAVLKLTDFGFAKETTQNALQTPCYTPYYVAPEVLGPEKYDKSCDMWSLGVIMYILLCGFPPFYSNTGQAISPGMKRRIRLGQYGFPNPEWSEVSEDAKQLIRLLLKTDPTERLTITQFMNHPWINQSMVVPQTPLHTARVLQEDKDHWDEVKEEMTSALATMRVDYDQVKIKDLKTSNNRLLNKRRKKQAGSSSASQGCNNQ
Experiment: MK-3 inhibition IC50 (similar method to MK-2, with appropriate modifications)
Assay type: biochemical
Details: read-out: MK-3 Avg. IC50
reported-endpoint: pIC50
// pIC50 here means minus log10 of the molar concentration (mol/L)

Example entries begin here.
| compound | reported-endpoint | data-value |
| --- | --- | --- |
| NCC1Cn2nc3c(c2C(=O)N1)CCc1cnccc1-3 (stereo not drawn) | pIC50 | 4.34 |
| Cc1ccc(C(C)CCNCCCn2nc3c(c2C(=O)O)CCc2cnccc2-3)o1 (stereo not drawn) | pIC50 | 4.65 |
| NCCCn1nc2c(c1C(=O)O)CCc1cnc(-c3cccc(O)c3)cc1-2 | pIC50 | 6.26 |

## Input Can you look up the measured pIC50 of O=C1NCCn2nc3c(c21)CCc1cnc(/C=C/c2ccc(O)cc2)cc1-3 for me?
## Output 4.56

## Input Can you look up the measured pIC50 of CN(C)c1ccc(-c2cc3c(cn2)CCc2c-3nn3c2C(=O)NCC3)cc1 for me?
## Output 4.44

## Input Can you look up the measured pIC50 of N#Cc1ccc(CCCNCCCn2nc3c(c2C(=O)O)CCc2cnccc2-3)cc1 for me?
## Output 4.35

## Input Can you look up the measured pIC50 of O=C(O)c1c2c(nn1CCCNCCc1ccc(-c3ccncc3)cc1)-c1ccncc1CC2 for me?
## Output 5.11

## Input Can you look up the measured pIC50 of NCCCn1nc2c(c1C(=O)O)CCc1cnc(-c3ccc4ccccc4c3)cc1-2 for me?
## Output 7.16

## Input Can you look up the measured pIC50 of O=C(O)c1c2c(nn1CCCNCCc1ccc(Br)cc1)-c1ccncc1CC2 for me?
## Output 4.97

----------
Target: MAPKAPK2 (MK-2) (Homo sapiens, UniProt P49137)
Sequence (P49137 whole entry, species assumed): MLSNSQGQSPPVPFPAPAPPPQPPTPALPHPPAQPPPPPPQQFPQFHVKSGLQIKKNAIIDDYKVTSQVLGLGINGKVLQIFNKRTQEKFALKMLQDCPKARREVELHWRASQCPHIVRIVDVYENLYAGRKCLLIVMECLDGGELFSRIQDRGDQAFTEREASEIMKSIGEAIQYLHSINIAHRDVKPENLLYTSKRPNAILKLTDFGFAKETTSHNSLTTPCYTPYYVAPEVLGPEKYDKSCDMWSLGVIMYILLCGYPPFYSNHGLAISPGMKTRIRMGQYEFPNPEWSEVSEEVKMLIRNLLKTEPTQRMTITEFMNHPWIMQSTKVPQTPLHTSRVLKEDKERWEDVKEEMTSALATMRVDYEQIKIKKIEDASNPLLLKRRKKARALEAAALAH
Assay: Determination of MK-2 IC50 (HSP-peptide phosphorylation, anion exchange resin capture assay)
Type: biochemical
Settings: read-out: MK-2 Avg. IC50
reported-endpoint: IC50 (nM)
Express the result in nM but write the number alone.

| molecule | IC50 [nM] |
| --- | --- |
| O=C1NC(CNCCc2cccs2)Cn2nc3c(c21)CCc1cnccc1-3 (stereo not drawn) [Example 73] | 924 |
| NCCCn1nc2c(c1C(=O)O)CCc1cnc(-c3ccc(F)c(F)c3)cc1-2 [Example 17] | 78.6 |

## Input What reported IC50 corresponds to NCc1cccc(-c2ccc(CCNCCCn3nc4c(c3C(=O)O)CCc3cnccc3-4)cc2)c1 [Example 67] on MAPKAPK2 (MK-2) (Homo sapiens, UniProt P49137)?
## Output 663

----------
Biological target: MAPKAPK2 (MK-2) (Homo sapiens, UniProt P49137)
Assay: Determination of MK-2 IC50 (HSP-peptide phosphorylation, anion exchange resin capture assay)
Format: biochemical
Settings: Table 1, phenoxypyrazole MK-2 inhibitors; read-out: MK-2 Avg, IC50
pIC50: −log10 of the molar value.
Classification field: YES = pIC50 at or over 4; NO = pIC50 under 4.

## Input For this compound, is measured pIC50 4 or higher? COC(=O)c1nn(-c2ccc(Cl)cc2)c2c1CCc1cc(OC)ccc1-2 [Example 159]
## Output NO

## Input For this compound, is measured pIC50 4 or higher? CC1Cc2cc(O)ccc2-c2n[nH]c(C(=O)O)c21 (stereo not drawn) [Example 59]
## Output NO

## Input For this compound, is measured pIC50 4 or higher? NCCCn1nc2c(c1C(=O)O)CCc1cc(O)c(-c3cccc(C(F)(F)F)c3)cc1-2 [Example 11]
## Output YES

## Input For this compound, is measured pIC50 4 or higher? Cn1nc2c(c1C(N)=O)CCc1cc(O)ccc1-2 [Example 71]
## Output NO

## Input For this compound, is measured pIC50 4 or higher? COC(=O)c1nn(-c2ccc(S(C)(=O)=O)cc2)c2c1CCc1cc(OC)ccc1-2 [Example 164]
## Output NO

## Input For this compound, is measured pIC50 4 or higher? COc1cc2c(cc1OC)-c1n[nH]c(C(=O)O)c1CC2 [Example 173]
## Output NO

## Input For this compound, is measured pIC50 4 or higher? NCCn1nc2c(c1C(=O)O)CCc1cc(O)c(-c3cccc([N+](=O)[O-])c3)cc1-2 [Example 2]
## Output YES
